Tested system: human mAChR M1 (Homo sapiens)
Sequence (P11229 whole entry): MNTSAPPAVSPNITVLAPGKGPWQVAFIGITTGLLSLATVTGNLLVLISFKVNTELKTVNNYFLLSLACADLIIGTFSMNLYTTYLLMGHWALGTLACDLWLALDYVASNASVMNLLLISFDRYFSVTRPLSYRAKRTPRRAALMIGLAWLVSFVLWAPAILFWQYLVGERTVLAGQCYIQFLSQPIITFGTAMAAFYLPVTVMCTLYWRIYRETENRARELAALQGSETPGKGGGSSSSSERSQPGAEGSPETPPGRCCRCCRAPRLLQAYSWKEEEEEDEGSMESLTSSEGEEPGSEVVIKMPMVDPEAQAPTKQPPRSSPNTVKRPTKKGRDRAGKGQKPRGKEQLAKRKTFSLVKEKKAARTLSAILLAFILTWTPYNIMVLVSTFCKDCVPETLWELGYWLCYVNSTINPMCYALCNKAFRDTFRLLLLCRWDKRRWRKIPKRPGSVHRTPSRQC
Protocol: mAChR M1 cell-based functional assay (calcium mobilization), PAM mode: increase in the EC20 acetylcholine response
Protocol: Chinese hamster ovary (CHO-K1) cells stably expressing rat (r)M1 were purchased from the American Type Culture Collection and cultured according to their indicated protocol. […] Calcium flux was measured using the Functional Drug Screening System (FDSS) 6000 (Hamamatsu Corporation, Tokyo, Japan) as an increase in the fluorescent static ratio. […] Agonist activity was analyzed as a concentration-dependent increase in calcium mobilization upon compound addition. […]
Attribute measured: EC50 (µM)
Numbers only, in µM.

Below are some molecules; for each one, tell me its EC50.
1. [2H]C1([2H])c2ncccc2C(=O)N1Cc1c(F)cc(-c2cccc3c2cnn3CC)cc1F [Compound 65]
2. [2H]C1([2H])c2ncccc2C(=O)N1Cc1c(F)cc(-c2cccc3nn(C([2H])([2H])[2H])cc23)cc1N1CCC1 [Compound 222]
3. [2H]C1([2H])c2ncccc2C(=O)N1Cc1c(F)cc(-c2ccc(C)c3nn(C([2H])([2H])[2H])cc23)cc1F [Compound 52]
4. [2H]C1([2H])c2ncccc2C(=O)N1Cc1c(C)cc(-c2ccnc3nn(C)cc23)cc1F [Compound 201]
5. [2H]C1([2H])c2ncccc2C(=O)N1Cc1c(C)cc(-c2cccc3nn(C([2H])([2H])[2H])cc23)cc1F (single isomer, unassigned) [Compound 156]
6. [2H]C1([2H])c2ncccc2C(=O)N1Cc1ccc(-c2cc(F)cc3nn(C)cc23)cc1F [Compound 71]

Response given:
[1.3, 3.78, 0.317, 0.332, 0.194, 0.698]
